// data source = patent US8969345B2

- Assay Comment: Metabolic stability evaluation in human liver microsome
- Type: in vitro ADME
- Condition Notes: liver microsomes, pH 7.4; human liver microsome 0.2 mg/mL protein, test compound 1 μmol/L, β-NADPH, 37° C., 30 min; average of two samples; read-out: hCLint (converted)
Recorded Endpoint: CLint scaled at 1 μmol/L (mL/min/kg)

Field: example entries. Status: answers known.
Compound: C/C(=C1/c2ccc(Cn3c(C(C)C)nc(Cl)c3Cl)cc2COc2cc(F)ccc21)c1noc(=O)[nH]1 [Compound 13c]
CLint scaled at 1 μmol/L [mL/min/kg]: 88.3

Compound: C#Cc1ccn2c(Cc3ccc4c(c3)COc3cc(F)ccc3/C4=C(\C)c3noc(=O)[nH]3)c(C)nc2c1 [Compound 14h]
CLint scaled at 1 μmol/L [mL/min/kg]: 36.7

Compound: C/C(=C1/c2ccc(Cn3c(C4CCC4)nc4nc(F)ccc43)cc2COc2cc(F)ccc21)c1noc(=O)[nH]1
CLint scaled at 1 μmol/L [mL/min/kg]: 21.7

Compound: CC/C(=C1/c2ccc(Cn3c(COC)nc4ccccc43)cc2COc2cc(F)ccc21)c1noc(=O)[nH]1
CLint scaled at 1 μmol/L [mL/min/kg]: 36.7

Compound: CCCc1nc(C)nc(N2CCC2)c1Cc1ccc2c(c1)COc1cc(F)ccc1/C2=C(\C)c1noc(=O)[nH]1 [Compound 13g]
CLint scaled at 1 μmol/L [mL/min/kg]: 65

a. CCCc1nc2c(C(N)=O)cccc2n1Cc1ccc2c(c1)COc1cc(F)ccc1/C2=C(\C)c1noc(=O)[nH]1
b. O=c1[nH]c(/C(F)=C2\c3ccc(Cc4c(C5CC5)nc5c(Cl)cccn45)cc3COc3cc(F)ccc32)no1
c. CCCc1nc2ccccc2n1Cc1ccc2c(c1)COc1cc(F)ccc1/C2=C(\C)c1noc(=O)[nH]1
d. C/C(=C1/c2ccc(Cc3c(C4CCOC4)nc4cc(F)ccn34)cc2COc2cc(F)ccc21)c1noc(=O)[nH]1 (centres unmarked) [Compound 14j]
e. C/C(=C1/c2ccc(Cc3c(C4CC4)nc4nc(C(F)(F)F)ccn34)cc2COc2cc(F)ccc21)c1noc(=O)[nH]1 [Compound 11h]
Exam item: Order by CLint scaled at 1 μmol/L, ascending. Present the labels in the sequence the task asks for.
Marked response: d, b, a, c, e

I. C/C(=C1/c2ccc(Cn3c(C4CC4)nc4ccccc43)cc2COc2cc(F)ccc21)c1noc(=O)[nH]1
II. CCCc1nc2ccccc2n1Cc1ccc2c(c1)COc1cc(F)c(F)cc1/C2=C(\C)c1noc(=O)[nH]1
Exam item: From the items above, decide which of I and II has the lower CLint scaled at 1 μmol/L reading. # respond with the chosen item's label
Marked response: I

###

- Tgt: GAL4-PPAR γ chimeric nuclear receptor (human PPAR γ ligand binding domain) (Homo sapiens, UniProt P37231)
- Sequence (P37231 174-475 isoform P37231-2): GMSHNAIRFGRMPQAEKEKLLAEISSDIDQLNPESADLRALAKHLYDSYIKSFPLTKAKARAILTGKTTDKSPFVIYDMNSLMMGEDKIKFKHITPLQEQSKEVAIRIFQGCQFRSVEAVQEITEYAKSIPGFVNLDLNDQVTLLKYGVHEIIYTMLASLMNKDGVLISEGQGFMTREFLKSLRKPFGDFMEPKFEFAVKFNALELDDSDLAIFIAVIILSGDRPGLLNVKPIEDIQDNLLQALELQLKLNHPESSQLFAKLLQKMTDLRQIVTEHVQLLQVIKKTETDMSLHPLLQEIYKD
- Assay Comment: PPAR γ transactivation assay by transient gene transfer (GAL4-PPAR γ chimeric receptor, luciferase reporter, HEK293EBNA cells)
- Condition Notes: concentration showing 50% of efficacy (maximum activity rate relative to pioglitazone = 100%), 24 hr
- Description: The agonist activity of the test compound to PPAR γ was determined by a transactivation assay method using a chimeric nuclear receptor of a DNA binding region of a yeast transcription factor GAL4 and a PPAR γ ligand binding region. Specifically, the PPAR γ agonist activity of the test compound was evaluated by the following method based on the method of Lehmann et al. (J Biol. Chem., 1995, vol. 270, page 12953). […]
pEC50: −log10 of the molar value.
Recorded Endpoint: pEC50

Molecule: C/C(=C1/c2ccc(Cc3c(C4CC4)nc4nc(C(F)(F)F)ccn34)cc2COc2cc(F)ccc21)c1noc(=O)[nH]1 [Compound 11h]
pEC50: 7.72

a. COCc1nc2ccccc2n1Cc1ccc2c(c1)COc1cc(F)ccc1/C2=C(\C)c1noc(=O)[nH]1
b. COCc1nc2cscc2n1Cc1ccc2c(c1)COc1cc(F)ccc1/C2=C(\C)c1noc(=O)[nH]1 [Compound 13d]
Exam item: # argmax over pEC50 for candidates a and b # respond with the chosen item's label
Marked response: a
(a: 7.93, b: 7.44)
